B1: glmS ribozyme (parent)
chain: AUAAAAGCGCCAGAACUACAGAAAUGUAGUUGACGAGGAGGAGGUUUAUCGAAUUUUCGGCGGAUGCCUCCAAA

Variants of: B1
Assay: self-cleavage kobs at 40 uM GlcN6P; higher = faster cleavage; RNA array
Details: with glucosamine-6-phosphate
Fewer inactive variants are shown than the library holds.
Endpoint: self-cleavage kobs at 40 uM GlcN6P

Just so you know, measured self-cleavage kobs at 40 uM GlcN6P for G29C C61A came out at < 1e-05 s⁻¹

Notebook: A14U A15U , self-cleavage kobs at 40 uM GlcN6P read as 5.71e-05 s⁻¹

So, G29U U31C C50G ? Its self-cleavage kobs at 40 uM GlcN6P was 6.96e-05 s⁻¹

Reported self-cleavage kobs at 40 uM GlcN6P of C8A C50G : 5.03e-05 s⁻¹

self-cleavage kobs at 40 uM GlcN6P in this record for C10G C16U : < 1e-05 s⁻¹

# self-cleavage kobs at 40 uM GlcN6P (variant: C10U U31A A53C U55G ) is < 1e-05 s⁻¹

Entry under test: G13C A42G . Its self-cleavage kobs at 40 uM GlcN6P was < 1e-05 s⁻¹

# self-cleavage kobs at 40 uM GlcN6P (variant: G7U U56A ) is < 1e-05 s⁻¹

For G38A G41A G63C the variant record lists self-cleavage kobs at 40 uM GlcN6P as < 1e-05 s⁻¹

Entry A28C C34A G62C — recorded self-cleavage kobs at 40 uM GlcN6P = < 1e-05 s⁻¹

G62C U69C yielded self-cleavage kobs at 40 uM GlcN6P of < 1e-05 s⁻¹

Short answer for A42C G62U : self-cleavage kobs at 40 uM GlcN6P was < 1e-05 s⁻¹

The variant listed as G32C G44C U55C C68A C70U has a reported self-cleavage kobs at 40 uM GlcN6P of < 1e-05 s⁻¹

The measured self-cleavage kobs at 40 uM GlcN6P associated with C34U G59A reads < 1e-05 s⁻¹

Measured self-cleavage kobs at 40 uM GlcN6P, G41C C58U G59C : < 1e-05 s⁻¹

Reported self-cleavage kobs at 40 uM GlcN6P of G7U C50G C68G : 0.000115 s⁻¹

Quick note, self-cleavage kobs at 40 uM GlcN6P for C10U U31C C34U landed at < 1e-05 s⁻¹

# self-cleavage kobs at 40 uM GlcN6P of C11U C34G G41A U47G = < 1e-05 s⁻¹

Lab book: self-cleavage kobs at 40 uM GlcN6P of A64C C70U noted as < 1e-05 s⁻¹

The variant listed as A6U G13U has a reported self-cleavage kobs at 40 uM GlcN6P of < 1e-05 s⁻¹

Lab book: self-cleavage kobs at 40 uM GlcN6P of G51U U57C noted as < 1e-05 s⁻¹

self-cleavage kobs at 40 uM GlcN6P for G9A G43A is < 1e-05 s⁻¹
